- Measured target: MMP-9 (92 kDa, gelatinase B; type IV collagenase) (Homo sapiens, UniProt P14780)
- Construct: endogenous in cells; enzyme purified from the conditioned medium
- Sequence (P14780 107-707 limits assumed): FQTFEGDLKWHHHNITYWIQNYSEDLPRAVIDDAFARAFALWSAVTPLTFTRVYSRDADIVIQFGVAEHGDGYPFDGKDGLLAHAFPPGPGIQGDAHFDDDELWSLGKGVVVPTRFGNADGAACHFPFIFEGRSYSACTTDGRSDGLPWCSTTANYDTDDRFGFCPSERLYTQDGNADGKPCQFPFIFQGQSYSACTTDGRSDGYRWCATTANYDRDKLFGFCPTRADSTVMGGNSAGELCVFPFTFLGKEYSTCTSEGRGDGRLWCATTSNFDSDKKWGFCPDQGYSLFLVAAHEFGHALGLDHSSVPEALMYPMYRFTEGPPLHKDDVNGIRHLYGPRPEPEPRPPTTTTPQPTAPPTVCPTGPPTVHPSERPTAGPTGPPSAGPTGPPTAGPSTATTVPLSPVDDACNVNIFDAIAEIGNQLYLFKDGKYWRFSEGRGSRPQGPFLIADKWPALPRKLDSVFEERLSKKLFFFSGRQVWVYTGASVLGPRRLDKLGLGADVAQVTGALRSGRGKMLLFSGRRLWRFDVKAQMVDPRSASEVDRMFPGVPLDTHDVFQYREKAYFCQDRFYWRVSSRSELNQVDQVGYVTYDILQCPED
- Test protocol: Assay of type IV collagenase inhibitors: activated MMP-9 with type IV collagenase activity kit substrate, fluorescent intensity
- Format: biochemical
Outcome measure: IC50 (nM)

{"columns": ["Structure smiles string", "Outcome measure", "Recorded number"],
 "data": [
  ["N#Cc1ccc(-n2nnc(-c3ccc(S(=O)(=O)N[C@H](Cc4ccccc4)C(=O)O)cc3)n2)cc1", "IC50", 265]
]}

[A] O=C(O)[C@@H](Cc1ccccc1)NS(=O)(=O)c1ccc(-c2nnn(-c3ccc([N+](=O)[O-])cc3)n2)cc1
[B] CC(C)[C@H](C(=O)O)N(CCCCN)S(=O)(=O)c1ccc(Oc2ccccc2)cc1
Prompt line: Of A and B , which shows the smaller IC50 value? Field: selected label. Fill in the label of the entry you choose.
Response line: A
